test system: myxovirus-resistant protein 1 (Mx1); experiment: RT-qPCR of Mx1 mRNA in MDCK cells with or without A/PR/8/34 virus; type: cell-based, canine; conditions: virus +; 12.5uM; relative to virus - DMSO; ave of #1-3 exp
endpoint: MDCK Mx1 mRNA, ave

Recorded MDCK Mx1 mRNA, ave, per entry:
compound="C=C[C@]1(C)CCC(C(=C)C)C(c2ccc(O)cc2)C1 (stereo in doubt) [cyclobakuchiol A]" test_target="myxovirus-resistant protein 1 (Mx1)" endpoint="MDCK Mx1 mRNA, ave" result=1.207
compound="C=C[C@]1(C)CCC(C(C)(C)O)C(c2ccc(O)cc2)C1 (stereo in doubt) [cyclobakuchiol D]" test_target="myxovirus-resistant protein 1 (Mx1)" endpoint="MDCK Mx1 mRNA, ave" result=4.805
compound="C=C[C@]1(C)CCC(C(C)(C)O)C(c2ccc(O)cc2)C1 (stereo in doubt) [cyclobakuchiol C]" test_target="myxovirus-resistant protein 1 (Mx1)" endpoint="MDCK Mx1 mRNA, ave" result=4.111
compound="C=C[C@]1(C)CCC(C(=C)C)C(c2ccc(O)cc2)C1 (stereo in doubt) [cyclobakuchiol B]" test_target="myxovirus-resistant protein 1 (Mx1)" endpoint="MDCK Mx1 mRNA, ave" result=2.462

Could you now consider this next compound?
Fill in the blank: the reported MDCK Mx1 mRNA, ave of C=C[C@@](C)(/C=C/c1ccc(O)cc1)CCC=C(C)C [(+)-(S)-bakuchiol, reference compound] is ____.
1.1334
